- System under test: STAT6 (Homo sapiens, UniProt P42226)
- Construct: These cells express endogenous STAT6; host or cells: HeLa LgBiT clone 4.14
- Sequence (P42226 whole entry): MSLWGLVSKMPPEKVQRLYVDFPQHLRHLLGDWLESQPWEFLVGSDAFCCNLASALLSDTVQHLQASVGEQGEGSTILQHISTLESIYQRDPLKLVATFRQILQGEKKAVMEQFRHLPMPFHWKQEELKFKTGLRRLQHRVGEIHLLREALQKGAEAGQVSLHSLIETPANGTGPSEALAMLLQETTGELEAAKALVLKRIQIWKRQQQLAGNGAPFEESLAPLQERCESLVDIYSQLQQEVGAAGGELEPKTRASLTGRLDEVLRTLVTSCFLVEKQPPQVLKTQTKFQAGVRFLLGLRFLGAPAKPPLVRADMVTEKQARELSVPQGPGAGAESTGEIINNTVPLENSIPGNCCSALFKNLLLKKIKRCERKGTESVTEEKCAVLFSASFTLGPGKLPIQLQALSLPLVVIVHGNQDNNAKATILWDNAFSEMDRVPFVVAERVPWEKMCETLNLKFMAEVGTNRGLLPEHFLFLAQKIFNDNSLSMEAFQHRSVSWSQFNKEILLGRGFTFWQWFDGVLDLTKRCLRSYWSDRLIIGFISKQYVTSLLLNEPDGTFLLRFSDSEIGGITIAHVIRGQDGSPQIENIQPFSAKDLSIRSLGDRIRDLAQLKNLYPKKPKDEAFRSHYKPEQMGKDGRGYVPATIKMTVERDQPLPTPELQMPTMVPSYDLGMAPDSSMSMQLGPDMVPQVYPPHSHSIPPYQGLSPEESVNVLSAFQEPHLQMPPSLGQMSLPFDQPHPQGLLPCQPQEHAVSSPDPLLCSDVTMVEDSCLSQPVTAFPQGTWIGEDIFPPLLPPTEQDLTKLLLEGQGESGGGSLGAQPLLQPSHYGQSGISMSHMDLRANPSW
- Assay name: Stat6 Degrader Assay (HiBiT based, HeLa LgBiT clone 4.14)
- Format: cell-based
- Details: HeLa LgBiT clone 4.14 HiBiT-STAT6, 4-24 h incubation; values given for compounds with >80% Emax; geometric mean; read-out: STAT6 degradation DC50
Experimental readout: DC50 (nM)

compound="Cc1cc(C(=O)N2CCC(CN3CCN(Cc4cc5c(cc4F)n([C@H]4CCC(=O)NC4=O)c(=O)n5C4CC4)C[C@@H]3C)CC2)cc(F)c1C1=CCN([C@@H](C)c2cc3c(-n4ccc5c(c4=O)CCN5)ccnc3n2C)CC1 (single isomer, unassigned)" system_under_test="STAT6 (Homo sapiens, UniProt P42226)" data_value=0.5
compound="Cc1cc(C(=O)N2CCC(CN3CCN(Cc4ccc5c(c4)C(C)(C)C(=O)N5[C@@H]4CCC(=O)NC4=O)C[C@@H]3C)CC2)cc(F)c1C1=CCN([C@@H](C)c2cc3c(-n4cc(F)c(N)cc4=O)ccnc3n2C)CC1 (single isomer, unassigned)" system_under_test="STAT6 (Homo sapiens, UniProt P42226)" data_value=3.5
compound="CNc1ccn(-c2ccnc3c2cc([C@H](C)N2CC=C(c4c(F)cc(C(=O)N5CCC(CN6CCN(Cc7ccc8c(c7)C(C)(C)C(=O)N8[C@H]7CCC(=O)NC7=O)C[C@@H]6C)CC5)cc4F)CC2)n3C)c(=O)c1 (single isomer, unassigned)" system_under_test="STAT6 (Homo sapiens, UniProt P42226)" data_value=1.9
compound="C[C@H]1CN(Cc2ccc3c(c2)C(C)(C)C(=O)N3[C@@H]2CCC(=O)NC2=O)CCN1CC1CCN(C(=O)c2ccc(C3CCN([C@@H](C)c4cc5c(-n6ccc7c(c6=O)CCN7)ccnc5n4C)CC3)cc2)CC1 (single isomer, unassigned)" system_under_test="STAT6 (Homo sapiens, UniProt P42226)" data_value=3.5
compound="CNc1ccn(-c2ccnc3c2cc([C@H](C)N2CC=C(c4c(C)cc(C(=O)N5CCC(CN6CCN(c7ccc8c(c7)n(C)c(=O)n8[C@H]7CCC(=O)NC7=O)CC6)CC5)cc4F)CC2)n3C)c(=O)c1 (single isomer, unassigned)" system_under_test="STAT6 (Homo sapiens, UniProt P42226)" data_value=1
compound="CNc1ccn(-c2ccnc3c2cc(CN2CCC(c4c(F)cc(C(=O)N5CCC(CN6CCN(c7ccc8c(c7)C7(CC7)C(=O)N8C7CCC(=O)NC7=O)CC6)CC5)cc4F)CC2)n3C)c(=O)c1 (stereo not shown)" system_under_test="STAT6 (Homo sapiens, UniProt P42226)" data_value=33.8
compound="CNc1ccn(-c2ccnc3c2cc([C@H](C)N2CCC(c4c(C)cc(C(=O)N(C)c5ccc(C6CCN(Cc7ccc8c(c7)n(C)c(=O)n8C7CCC(=O)NC7=O)CC6)cc5)cc4F)CC2)n3C)c(=O)c1 (stereo partly shown)" system_under_test="STAT6 (Homo sapiens, UniProt P42226)" data_value=0.6
compound="CNc1ccn(-c2ccnc3c2cc(CN2CCC(c4c(F)cc(C(=O)N5CCC(CN6CCN(Cc7ccc8c(c7)n(C7CC7)c(=O)n8[C@H]7CCC(=O)NC7=O)C[C@@H]6C)CC5)cc4F)CC2)n3C)c(=O)c1 (single isomer, unassigned)" system_under_test="STAT6 (Homo sapiens, UniProt P42226)" data_value=1.8
compound="CNc1cc(=O)n(-c2ccnc3c2cc([C@H](C)N2CC=C(c4c(C)cc(C(=O)N(C)c5ccc(C6CCN(Cc7ccc8c(c7)C(C)(C)C(=O)N8C7CCC(=O)NC7=O)CC6)cc5)cc4F)CC2)n3C)cc1F (stereo partly shown)" system_under_test="STAT6 (Homo sapiens, UniProt P42226)" data_value=0.2
compound="CNc1cc(=O)n(-c2ccnc3c2cc([C@H](C)N2CC=C(c4c(C)cc(C(=O)N5CCC(CN6CCN(Cc7ccc8c(c7)C(C)(C)C(=O)N8[C@@H]7CCC(=O)NC7=O)CC6)CC5)cc4F)CC2)n3C)cc1F (single isomer, unassigned)" system_under_test="STAT6 (Homo sapiens, UniProt P42226)" data_value=4.1
compound="CNc1ccn(-c2ccnc3c2cc([C@H](C)N2CC=C(c4c(C)cc(C(=O)N(C)c5ccc(C6CCN(Cc7ccc8c(c7)n(C)c(=O)n8C7CCC(=O)NC7=O)CC6)cc5)cc4F)CC2)n3C)c(=O)c1 (stereo partly shown)" system_under_test="STAT6 (Homo sapiens, UniProt P42226)" data_value=0.1
compound="C[C@H]1CN(Cc2ccc3c(c2)n(C2CC2)c(=O)n3C2CCC(=O)NC2=O)CCN1CC1CCN(C(=O)c2cc(F)c(C3CCN(Cc4cc5c(-n6ccc7c(c6=O)CCN7)ccnc5n4C)CC3)c(F)c2)CC1 (stereo partly shown)" system_under_test="STAT6 (Homo sapiens, UniProt P42226)" data_value=2.3
compound="CNc1ccn(-c2ccnc3c2cc(CN2CC=C(c4c(C)cc(C(=O)N(C)c5ccc(C6CCN(Cc7ccc8c(c7)C(C)(C)C(=O)N8[C@@H]7CCC(=O)NC7=O)CC6)cc5)cc4F)CC2)n3C)c(=O)c1 (single isomer, unassigned)" system_under_test="STAT6 (Homo sapiens, UniProt P42226)" data_value=0.4
compound="CNc1ccn(-c2ccnc3c2cc([C@H](C)N2CC=C(c4c(C)cc(C(=O)N5CCC(CN6CCN(Cc7ccc8c(c7)n(C7CC7)c(=O)n8[C@H]7CCC(=O)NC7=O)CC6)CC5)cc4F)CC2)n3C)c(=O)c1 (single isomer, unassigned)" system_under_test="STAT6 (Homo sapiens, UniProt P42226)" data_value=0.9
compound="CNc1cc(=O)n(-c2ccnc3c2cc(CN2CCC(c4c(F)cc(C(=O)N5CCC(CN6CCN(Cc7ccc8c(c7)n(C)c(=O)n8[C@H]7CCC(=O)NC7=O)C[C@@H]6C)CC5)cc4F)CC2)n3C)cc1F (single isomer, unassigned)" system_under_test="STAT6 (Homo sapiens, UniProt P42226)" data_value=1.9
compound="Cc1cc(C(=O)N2CCC(CN3CCN(Cc4cc5c(cc4F)n([C@H]4CCC(=O)NC4=O)c(=O)n5C4CC4)CC3)CC2)cc(F)c1C1=CCN([C@@H](C)c2cc3c(-n4ccc5c(c4=O)CCN5)ccnc3n2C)CC1 (single isomer, unassigned)" system_under_test="STAT6 (Homo sapiens, UniProt P42226)" data_value=1.6

----------
- System under test: STAT6 (Homo sapiens)
- Construct: These cells express endogenous STAT6; host or cells: HeLa LgBiT clone 4.14
- Assay name: Stat6 Degrader Assay (HiBiT based, HeLa LgBiT clone 4.14)
- Assay type: cell-based
- Details: HeLa LgBiT clone 4.14 HiBiT-STAT6, 4-24 h incubation; values given for compounds with >80% Emax; geometric mean; read-out: STAT6 degradation DC50
Experimental readout: log10(DC50) (log10 of the value in nM)

compound="CNc1ccn(-c2cccc3c2cc([C@H](C)N2CC=C(c4c(C)cc(C(=O)N5CCC(CN6CCN(Cc7cc8c(cc7F)n([C@H]7CCC(=O)NC7=O)c(=O)n8C7CC7)C[C@@H]6C)CC5)cc4F)CC2)n3C)c(=O)c1 (single isomer, unassigned)" data_value=-0.10
compound="C[C@H]1CN(Cc2ccc3c(c2)C2(CCC2)C(=O)N3C2CCC(=O)NC2=O)CCN1CC1CCN(C(=O)c2cc(F)c(C3CCN(Cc4cc5c(-n6ccc7c(c6=O)CCN7)ccnc5n4C)CC3)c(F)c2)CC1 (some centres unmarked)" data_value=0.36
compound="CNc1ccn(-c2ccnc3c2cc(CN2CC=C(c4c(F)cc(C(=O)N5CCC(CN6CCN(Cc7ccc8c(c7)n(C7CC7)c(=O)n8[C@@H]7CCC(=O)NC7=O)C[C@@H]6C)CC5)cc4F)CC2)n3C)c(=O)c1 (single isomer, unassigned)" data_value=0.83
compound="CNc1ccn(-c2ccnc3c2cc([C@H](C)N2CCC(c4ccc(C(=O)N5CCC(CN6CCN(Cc7ccc8c(c7)C7(CC7)C(=O)N8[C@@H]7CCC(=O)NC7=O)C[C@@H]6C)CC5)cc4)CC2)n3C)c(=O)c1 (single isomer, unassigned)" data_value=-0.22
compound="CNc1ccn(-c2ccnc3c2cc([C@H](C)N2CC=C(c4c(C)cc(C(=O)N5CCC(CN6CCN(Cc7ccc8c(c7)n(C7CC7)c(=O)n8C7CCC(=O)NC7=O)C[C@@H]6C)CC5)cc4F)CC2)n3C)c(=O)c1 (some centres unmarked)" data_value=-0.40
compound="CNc1ccn(-c2ccnc3c2cc(CN2CCC(c4c(F)cc(C(=O)N5CCC(CN6CCN(C(=O)c7ccc8c(c7)n(C)c(=O)n8C7CCC(=O)NC7=O)CC6)CC5)cc4F)CC2)n3C)c(=O)c1 (centres unmarked)" data_value=0.77
compound="CNc1cc(=O)n(-c2ccnc3c2cc([C@H](C)N2CC=C(c4c(C)cc(C(=O)N5CCC(CN6CCN(Cc7ccc8c(c7)C7(CC7)C(=O)N8[C@H]7CCC(=O)NC7=O)CC6)CC5)cc4F)CC2)n3C)cc1F (single isomer, unassigned)" data_value=0.15
compound="CNc1cc(=O)n(-c2ccnc3c2cc([C@H](C)N2CCC(c4ccc(C(=O)N5CCC(CN6CCN(Cc7ccc8c(c7)C7(CC7)C(=O)N8[C@H]7CCC(=O)NC7=O)C[C@@H]6C)CC5)cc4)CC2)n3C)cc1F (single isomer, unassigned)" data_value=-0.30
